Reference for the values: patent US20090275099A1

Exercise: state measured IC50 for each of the compounds provided.
- SYSTEM: mitochondrial F1F0-ATPase (Bos taurus, UniProt P13621+P32876)
- TEST_DETAILS: biochemical
- Parameters: species or system bovine
- ASSAY_CONDITIONS: read-out: KJ IC50 (syn)
Numbers only, in µM.

// for each compound below, give its IC50
1. CC(C)(C)c1ccc(S(=O)(=O)N2Cc3ccccc3N(Cc3c[nH]cn3)C(CCc3ccccc3)C2)cc1 (stereo not drawn)
2. N#Cc1cccc(C(=O)/N=C(\Nc2ccc(Cl)cc2)NC(Cn2ccnc2)c2ccc(Cl)cc2Cl)c1 (racemic)
3. O=S(=O)(c1ccc(F)cc1)N1Cc2ccccc2N(Cc2c[nH]cn2)C(CCc2ccccc2)C1 (stereo not drawn)
4. O=S(=O)(c1ccc(C(F)(F)F)cc1)N1Cc2ccccc2N(Cc2c[nH]cn2)C(CCc2ccccc2)C1 (stereo not drawn)
5. O=S(=O)(N1Cc2ccccc2N(Cc2c[nH]cn2)C(CCc2ccccc2)C1)C(F)(F)F (stereo not drawn)
6. S=C(Nc1ccc(Cl)cc1)OC(Cn1ccnc1)c1ccc(Cl)cc1Cl (stereo not drawn)
7. N#CN/C(=N/c1ccc(Cl)cc1Cl)NC(Cn1ccnc1)c1ccc(Cl)cc1Cl (stereo not drawn)
8. N#CN/C(=N\C(Cn1ccnc1)c1cc(C(F)(F)F)ccc1C(F)(F)F)Nc1ccc(Cl)cc1Cl (stereo not drawn)

Reply:
[5, 1.5, 7.5, 6, 3.75, 12.5, 6, 3.75]

// field: IC50; key: O=S(=O)(c1ccc(O)cc1)N1Cc2ccccc2N(Cc2cnc[nH]2)C(CCc2ccccc2)C1 (stereo not drawn) ; value = 20

====

- System: Jurkat cells
- TEST_DETAILS: early O2− (ROS) response, 1 h
- Assay type: cell-based
- ASSAY_CONDITIONS: Homo sapiens, Jurkat, 1 h; read-out: ROS EC50 (μM), Jurkat cells
PROPERTY_NAME: EC50

// sample CCC(C)N(C)C(=O)c1cc2ccccc2c(-c2ccccc2Cl)n1 (stereo not shown) , its EC50 was 56 µM

====

- SYSTEM: mitochondrial F1F0-ATPase (Bos taurus, UniProt P13621+P32876)
- TEST_DETAILS: biochemical
- Design: species or system bovine
- ASSAY_CONDITIONS: uncompetitive inhibition constant (Ki(ES)), synthesis, fit of dependence of Vmax on Bz-423 concentration
PROPERTY_NAME: Ki (µM)
Answers are plain numbers, in µM.

Record for CN1C(=O)C(Cc2ccc3ccccc3c2)N=C(c2ccc(O)cc2)c2cc(Cl)ccc21 (stereo not shown) under target or system mitochondrial F1F0-ATPase (Bos taurus, UniProt P13621+P32876): Ki reported as 11

====

- Tested on: Ramos clones transfected to overexpress Bcl-2
- TEST_DETAILS: antiproliferation, 72 h, 10% FBS
- Assay type: cell-based
- ASSAY_CONDITIONS: Homo sapiens, Bcl-2, 72 h, read-out: ED50 for antiproliferation
PROPERTY_NAME: EC50 (µM)
One number for each entry, in µM.

Simply: CN1C(=O)C(Cc2ccc3ccccc3c2)N=C(c2ccc(O)cc2)c2cc(Cl)ccc21 (stereo not shown) , Ramos clones transfected to overexpress Bcl-2, EC50 = 11.9

====

- SYSTEM: mitochondrial F1F0-ATPase (Bos taurus, UniProt P13621+P32876)
- TEST_DETAILS: biochemical
- Set-up: species or system bovine
- ASSAY_CONDITIONS: Ki (ES), synthesis, three-dimensional fit, Bz-423
PROPERTY_NAME: pKi
Numbers only, as −log10 of the molar value.

Data point: CN1C(=O)C(Cc2ccc3ccccc3c2)N=C(c2ccc(O)cc2)c2cc(Cl)ccc21 (stereo not shown) ; pKi = 5.00

====

- Tested on: Ramos B cells
- TEST_DETAILS: cell death of Ramos B cells, propidium iodide exclusion by flow cytometry, 24 h
- Type: cell-based, human
- ASSAY_CONDITIONS: Homo sapiens, Ramos, 24 h; read-out: Cell death EC50 (μM), Ramos cells
PROPERTY_NAME: EC50 (µM)
Give bare numbers, in µM.

>  <COMPOUND>
CCC(C)N(C)C(=O)c1cc2ccccc2c(-c2ccccc2Cl)n1 (stereo not drawn)

>  <SYSTEM>
Ramos B cells

>  <PROPERTY_NAME>
EC50

>  <ASSAY_VALUE>
90

$$$$

Field EC50 (system: Ramos B cells) for entry CN1C(=O)C(Cc2ccc3ccccc3c2)N=C(c2ccc(O)cc2)c2cc(Cl)ccc21 (stereo not drawn) = 6.3

====

- SYSTEM: peripheral benzodiazepine receptor (“PBR”) (Homo sapiens)
- Sequence (P30536 whole entry, species assumed): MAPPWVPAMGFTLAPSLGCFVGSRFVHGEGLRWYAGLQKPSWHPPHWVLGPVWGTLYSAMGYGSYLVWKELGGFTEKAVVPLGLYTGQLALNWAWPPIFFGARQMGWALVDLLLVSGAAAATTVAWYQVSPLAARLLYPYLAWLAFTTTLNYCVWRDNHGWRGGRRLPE
PROPERTY_NAME: Kd

The compound listed as CN1C(=O)C(Cc2ccc3ccccc3c2)N=C(c2ccc(O)cc2)c2cc(Cl)ccc21 (stereo not shown) [Bz-423] has a reported Kd of ~1000 nM

====

- SYSTEM: F1F0-ATPase, OSCP subunit (UniProt P48047)
- TEST_DETAILS: F1F0-ATPase activity in SMPs reconstituted in the presence or absence of the OSCP
- Format: biochemical, bovine
- Design: rows headed: KJ IC50 reconst; not tied in print to the reconstitution assay
- ASSAY_CONDITIONS: read-out: KJ IC50 reconst
Please respond with reported IC50 for every item in the list.
Give bare numbers, in nM.

Below: 2 molecules and their reported IC50.
>  <MOLECULE>
O=S(=O)(c1ccc(F)cc1)N1Cc2ccccc2N(Cc2c[nH]cn2)C(CCc2ccccc2)C1 (stereo not drawn)

>  <SYSTEM>
F1F0-ATPase, OSCP subunit (UniProt P48047)

>  <UNIT_OF_MEASURE>
nM

>  <IC50>
100

$$$$
>  <MOLECULE>
O=S(=O)(N1Cc2ccccc2N(Cc2c[nH]cn2)C(CCc2ccccc2)C1)C(F)(F)F (stereo not drawn)

>  <SYSTEM>
F1F0-ATPase, OSCP subunit (UniProt P48047)

>  <UNIT_OF_MEASURE>
nM

>  <IC50>
50

$$$$

Would you be so kind as to report IC50 for each listed record?
1. O=S(=O)(c1ccc(C(F)(F)F)cc1)N1Cc2ccccc2N(Cc2c[nH]cn2)C(CCc2ccccc2)C1 (stereo not drawn)
2. Cc1[nH]cnc1CN1c2ccccc2CN(S(=O)(=O)c2ccc(C(C)(C)C)cc2)CC1CCc1ccccc1 (stereo not drawn)
3. N#CN/C(=N/c1ccc(Cl)cc1Cl)NC(Cn1ccnc1)c1ccc(Cl)cc1Cl (stereo not drawn)
4. CC(C)(C)c1ccc(S(=O)(=O)N2Cc3ccccc3N(Cc3c[nH]cn3)C(CCc3ccccc3)C2)cc1 (stereo not drawn)
5. O=S(=O)(c1ccc(Cl)c(Cl)c1)N1Cc2ccccc2N(Cc2c[nH]cn2)C(CCc2ccccc2)C1 (stereo not drawn)
6. N#Cc1cccc(C(=O)/N=C(\Nc2ccc(Cl)cc2)NC(Cn2ccnc2)c2ccc(Cl)cc2Cl)c1 (racemic)
7. COc1ccc(S(=O)(=O)N2Cc3ccccc3N(Cc3c[nH]cn3)C(CCc3ccccc3)C2)cc1 (stereo not drawn)
8. N#CN/C(=N\C(Cn1ccnc1)c1cc(C(F)(F)F)ccc1C(F)(F)F)Nc1ccc(Cl)cc1Cl (stereo not drawn)

Reply:
1. 25
2. 5
3. 4000
4. 20
5. 50
6. 200
7. 50
8. 250

Give IC50 for all molecules that follow.
1. S=C(Nc1ccc(Cl)cc1)OC(Cn1ccnc1)c1ccc(Cl)cc1Cl (stereo not drawn)
2. O=S(=O)(c1ccc(O)cc1)N1Cc2ccccc2N(Cc2cnc[nH]2)C(CCc2ccccc2)C1 (stereo not drawn)

Reply:
1: 300; 2: 500

====

- Tested on: F1F0-ATPase, OSCP subunit
- TEST_DETAILS: F1F0-ATPase activity in SMPs reconstituted in the presence or absence of the OSCP
- Format: biochemical, bovine
- ASSAY_CONDITIONS: without OSCP, at IC50
Kindly state % activity without OSCP at IC50 for each of the entries shown.
Answers are plain numbers, in %.

Consider the following items and state reported % activity without OSCP at IC50 for each.
1. O=S(=O)(N1Cc2ccccc2N(Cc2c[nH]cn2)C(CCc2ccccc2)C1)C(F)(F)F (stereo not drawn)
2. Cc1[nH]cnc1CN1c2ccccc2CN(S(=O)(=O)c2ccc(C(C)(C)C)cc2)CC1CCc1ccccc1 (stereo not drawn)
3. S=C(Nc1ccc(Cl)cc1)OC(Cn1ccnc1)c1ccc(Cl)cc1Cl (stereo not drawn)
4. O=S(=O)(c1ccc(Cl)c(Cl)c1)N1Cc2ccccc2N(Cc2c[nH]cn2)C(CCc2ccccc2)C1 (stereo not drawn)
5. O=S(=O)(c1ccc(F)cc1)N1Cc2ccccc2N(Cc2c[nH]cn2)C(CCc2ccccc2)C1 (stereo not drawn)
6. O=S(=O)(c1ccc(C(F)(F)F)cc1)N1Cc2ccccc2N(Cc2c[nH]cn2)C(CCc2ccccc2)C1 (stereo not drawn)
7. O=S(=O)(c1ccc(O)cc1)N1Cc2ccccc2N(Cc2cnc[nH]2)C(CCc2ccccc2)C1 (stereo not drawn)

Reply:
[78, 80, 70, 76, 79, 80, 77]

Batch of 2 compounds: report % activity without OSCP at IC50 for each.
1. COc1ccc(S(=O)(=O)N2Cc3ccccc3N(Cc3c[nH]cn3)C(CCc3ccccc3)C2)cc1 (stereo not drawn)
2. CC(C)(C)c1ccc(S(=O)(=O)N2Cc3ccccc3N(Cc3c[nH]cn3)C(CCc3ccccc3)C2)cc1 (stereo not drawn)

Reply:
1. 81
2. 77
